For each of the compounds below, state its Corn plant response rating.
- System: corn
- protocol-details: Test A preemergence
- Type: in vivo, Zea mays
- settings: preemergence, 125 g ai/ha; visual injury, 0 to 100 scale, approx. 10 days
One number for each entry.

Cc1cc(C(=O)NC2CC2)nn1Oc1ccnc(C(F)(F)F)c1	0

Look at each compound and report its Corn plant response rating.
1. CCc1cc(C(=O)NCC(F)(F)C(F)(F)F)nn1Cc1ccnc(C(F)(F)F)c1
2. CCCc1cc(C(=O)Nc2ccc(F)cc2)nn1Oc1ccnc(C(F)(F)F)c1
3. CCc1cc(C(=O)NOC(C)C)nn1Cc1cccc(OC(F)(F)F)c1
4. Cc1cc(C(=O)Nc2ccc(F)cc2)nn1Oc1ccnc(C(F)(F)F)c1

Result:
[10, 0, 50, 0]

====

- Test system: barnyardgrass
- protocol-details: Test C postemergence
- Type: in vivo, Echinochloa crus-galli
- settings: postemergence, 250 g ai/ha; scale 0 to 100 (0 no effect, 100 complete control)
# if value of Plant response rating, Barnyardgrass reaches 40, tag True; if it stays below, tag False

Previously resolved entries follow.
O=C(NC1CC1)c1cc(CCCl)n(Cc2ccnc(C(F)(F)F)c2)n1	False
CCCc1cc(C(=O)NC(C)C)nn1Cc1cc(C(F)(F)F)nn1C	True
CCc1cc(C(=O)NCC(F)(F)F)nn1Cc1nc(C(F)(F)F)nn1C	False

Query: # bool: Plant response rating, Barnyardgrass of `CCCNC(=O)c1cc(OCC)n(Cc2ccnc(OC(F)F)c2)n1` >= 40
Result: True

Query: For this molecule, is measured Plant response rating, Barnyardgrass 40 or higher? `CCc1cc(C(=O)NCC(F)(F)F)nn1Cc1ccnc(Br)c1`
Result: False

Query: Could you tell me if the measured Plant response rating, Barnyardgrass of `CCCc1cc(C(=O)NCC(F)(F)F)nn1Cc1ccnc(OC(F)F)c1` reaches 40 or more?
Result: False

Query: Assess whether reported Plant response rating, Barnyardgrass for `CCc1cc(C(=O)NCC(F)(F)F)nn1Cc1cc(C(F)(F)F)nn1C` sits at 40 or higher.
Result: False

====

Task for the reader: assign each of the following compounds its reported Corn plant response rating.
- System: corn
- protocol-details: Test A preemergence
- Assay type: in vivo, Zea mays
- settings: preemergence, 500 g ai/ha, visual injury after approx. 10 days, 0 to 100 scale (0 no effect, 100 complete control)
Give bare numbers.

The cases that follow already have their Corn plant response rating on record.
CCCc1cc(C(=O)NOC(C)C)nn1Cc1cc(C(F)(F)F)nn1C	80
CCCNC(=O)c1cc(CC)n(Cc2cc(C(F)(F)C(F)(F)F)nn2C)n1	50
CCc1cc(C(=O)NCC(F)(F)F)nn1Cc1nc(C(F)(F)F)nn1C	80

The following compounds each have a reported value; give each one's Corn plant response rating.
1. CCCc1cc(-c2ccc(C(F)(F)F)cc2)nn1Cc1ccnc(C(F)(F)F)c1
2. CCc1cc(C(=O)NCC(F)(F)F)nn1Cc1cc(C(F)(F)C(F)(F)F)nn1C
3. O=C(NCC(F)(F)F)c1cc(Cl)n(Cc2cccc(C(F)(F)F)c2)n1
4. O=C(NC1CC1)c1cc(CCF)n(Cc2ccnc(C(F)(F)F)c2)n1
5. CCCc1cc(C(=O)NC2CC2)nn1Cc1cc(C(F)(F)F)nn1C
6. CCCNC(=O)c1cc(CC)n(Cc2nc(C(F)(F)F)nn2C)n1

Result:
[10, 50, 0, 90, 40, 80]
